# System: Amaranthus retoflexus (AMARE)
# experimental.details: Pre-emergence Test (glasshouse, percentage damage to the plant)
# Format: in vivo
# condition.details: 1000 g/ha unless otherwise stated, five-point scale
measured.parameter: percentage damage to the plant, AMARE

### Prompt Give the measured percentage damage to the plant, AMARE of `CCn1c(C)c(-c2cncn2C)c(=O)c(C(=O)OC)c1-c1ccc(Cl)c(Cl)c1` .
### Response 1 (1=0-20%)

### Prompt Form field: reported percentage damage to the plant, AMARE of `CCn1c(C)c(-c2cccnc2)c(=O)c(C(=O)O)c1-c1ccc(Cl)c(Cl)c1`
### Response 1 (1=0-20%)

### Prompt So what's the measured percentage damage to the plant, AMARE for this one? `CCn1c(C)c(-c2cc(Cl)ccc2Cl)c(=O)c(C(=O)O)c1-c1ccc(Cl)cc1`
### Response 0

### Prompt What value of percentage damage to the plant, AMARE has been reported for the following compound? `CCn1c(C)c(-c2ccncc2)c(=O)c(C(=O)O)c1-c1ccc(Cl)c(Cl)c1`
### Response 1 (1=0-20%)

###

# System: Abutilon theophrasti (ABUTH)
# experimental.details: Pre-emergence Test (glasshouse, percentage damage to the plant)
# Type: in vivo
# condition.details: 1000 g/ha unless otherwise stated, five-point scale
measured.parameter: percentage damage to the plant, ABUTH

### Prompt Look up percentage damage to the plant, ABUTH: CCn1c(C)c(-c2cc(F)cc(OCC(F)(F)F)c2)c(=O)c(C(=O)O)c1-c1ccc(Cl)c(Cl)c1 [Compound 94]
### Response 1 (1=0-20%)

### Prompt Item CCn1c(C)c(-c2ccc(F)c(C#N)c2)c(=O)c(C(=O)O)c1-c1ccc(Cl)c(Cl)c1 [Compound 91] has what recorded percentage damage to the plant, ABUTH?
### Response 2 (2=21-40%)

### Prompt Quick check: percentage damage to the plant, ABUTH of CCn1c(C)c(-c2ccc([N+](=O)[O-])cc2)c(=O)c(C(=O)O)c1-c1ccc(Cl)cc1 [Compound 194] ?
### Response 0

### Prompt Suppose we examine the compound CCn1c(C)c(-c2cc(Cl)cc(C(F)(F)F)c2)c(=O)c(C(=O)O)c1-c1ccc(Cl)c(Cl)c1 [Compound 82] ; what percentage damage to the plant, ABUTH value has been reported?
### Response 1 (1=0-20%)

### Prompt Query (compound): CCOc1cccc(-c2c(C)n(CC)c(-c3ccc(Cl)c(Cl)c3)c(C(=O)O)c2=O)c1 [Compound 98] ; field requested: percentage damage to the plant, ABUTH
### Response 1 (1=0-20%)

### Prompt Which percentage damage to the plant, ABUTH value belongs to CCn1c(C)c(-c2ccc(Cl)cc2OC)c(=O)c(C(=O)O)c1-c1ccc(Cl)c(Cl)c1 [Compound 154] ?
### Response 3 (3=41-60%)

### Prompt Requested field: percentage damage to the plant, ABUTH. Item: CCn1c(C)c(-c2ccc(Cl)cc2)c(=O)c(C(=O)O)c1-c1ccc(F)cc1F [Compound 130]
### Response 3 (3=41-60%)

### Prompt Using the record for CCn1c(C)c(-c2cccc(Cl)c2)c(=O)c(C(=O)O)c1-c1ccc(Cl)c(Cl)n1 [Compound 149] , report its percentage damage to the plant, ABUTH.
### Response 0

### Prompt Can you share its percentage damage to the plant, ABUTH? I mean this compound: CCn1c(C)c(-c2cncc(F)c2)c(=O)c(C(=O)O)c1-c1ccc(Cl)c(Cl)c1 [Compound 85]
### Response 2 (2=21-40%)

### Prompt Please look up its percentage damage to the plant, ABUTH: CCn1c(C)c(-c2ccc(C#N)cc2)c(=O)c(C(=O)O)c1-c1ccnc(Cl)c1 [Compound 142]
### Response 0

### Prompt # get_value(readout='percentage damage to the plant, ABUTH', item= CCn1c(C)c(-c2cc(C)c(Cl)c(C)c2)c(=O)c(C(=O)O)c1-c1ccc(Cl)cc1 [Compound 197] )
### Response 0

### Prompt Give its percentage damage to the plant, ABUTH value. Item: CCn1c(C)c(-c2ccc(Cl)cc2)c(=O)c(C(=O)O)c1-c1ccc(Br)cc1F [Compound 133]
### Response 3 (3=41-60%)

### Prompt Dear colleague, I am looking for the recorded percentage damage to the plant, ABUTH of the following compound: CCn1c(C)c(-c2cc(Cl)cc(Cl)c2)c(=O)c(C(=O)O)c1-c1ccc(Cl)c(Cl)c1 [Compound 56]
### Response 1 (1=0-20%)

### Prompt percentage damage to the plant, ABUTH for CCn1c(C)c(-c2ccc(OC)c(Cl)c2)c(=O)c(C(=O)O)c1-c1ccc(Cl)c(Cl)c1 [Compound 101] ?
### Response 2 (2=21-40%)

### Prompt Find the recorded percentage damage to the plant, ABUTH belonging to CCn1c(C)c(-c2ccc(F)cc2F)c(=O)c(C(=O)O)c1-c1ccc(Cl)cc1 [Compound 192] and report it.
### Response 2 (2=21-40%)

### Prompt Could you tell me which percentage damage to the plant, ABUTH is on file for CCn1c(C)c(-c2cccc(C#N)c2)c(=O)c(C(=O)O)c1-c1ccnc(Cl)c1 [Compound 141] ?
### Response 0
